Experiment: yeast display, Sf9 membrane polyspecificity reagent, FACS + sequencing; frameworks hold sequencing errors
result.type: polyreactivity (PSR sort gate)

QVQLVESGGGLVQAGGSLRLSCAASGSIFNGYAMGWYRQAPGKERELVAAISWSGVGTYYADSVKGRFTISRDNAKNTVYLEMNSLKPEDTAVYYCNAVATHDWLRVDTYEYWGQGTQVTVSS = low polyreactivity
QVQLVESGGGLVQAGGSLRLSCAASGSTFTGNSMGWYRQAPGKERELVAAISSSGASTYYADSVKGPFTISRDNAKNTVYLQMNSLKPEDTAVYYCAAELFYYPTPFREYDYWGQGTQVTVSS = low polyreactivity

* * *

Assay: yeast display, Sf9 membrane polyspecificity reagent, FACS + sequencing; frameworks hold sequencing errors
result.type: polyreactivity (PSR sort gate)

# count of solved cases: 8
QDQLVESGGGLVQAGGSLRLSCAASGSIFTDYAMGWYRQAPAKERELVAAITSSGGSTYYADSVKGRFTISRDYAKNTVYLQMKSLKTEDTAVYYCAADRITIYDYWGQGTQVTVSS = low polyreactivity
QVQLVESGGGLVQAGGSLRLSCAASGSTFAKYAMGWYRQAPGKERELVAAIRSGGSTNYADSVKGRFTISRDNAKITVYLQMYSLKPEDTAVYYCAAKRDVSRPVYFRNDYWGQGTQVTVSS = low polyreactivity
QVQLVESGGGLVQAGGSLRLSCAASGLTFYAYVMGWYRPAPGNERELVAAISGGGSTYYADSVKGRFTISRDNAKNSVYLEMISLKPEDTAVYYCNAELSLWDLGYDYWVQGTQVTVSS = low polyreactivity
QVQRVESGGGLVQAGGSLRLSCAASGSIFKYYTMGLYRPAPGKERELVAYISSGGSTKYADSVKGRFTNSRDNAKNTVYLQMNSLKPEDTAVYYCAKRYYYFYPDYDFLGQGTQVTVSS = high polyreactivity
QVQLVESVGGLFHEGGSLRLSSAASGFIFWANAMGCYRQAPGKERELVAAIRNSGGRTYYADSVKGRFTISRDKAKNTVYLQMNSLKPEDTAVYFCATDTGYPYSYDLFDSYYWGQGTQLTVSS = low polyreactivity
QVQLVESGGGLVQAGGSLRLSCAASGRTFSPNAMGWYRQAPGKERELVAAITRSDGRTYYADSVKGRFTISRDNAKNTVYLQMNSLKPEDTAVYYCAVDGYYPPAWYEYDYWGQGTQVTVSS = high polyreactivity
QVQLVESGGGLVQAGGSLRLSCAASAFIFGRYVMGWYIQAPGKEREVVAAISWSGGRTYYADSVKGRFTISRDNAKNTVYLQMNSLKPEDTAVYYCAAESSYPSYDGYYWGQGTQVTVSS = high polyreactivity
QVQLVESGGGLVQAGGSLRLSCAAYGSIFIYAMGGYRQAPGKVRELVAAISSSGGSTYYADSVKGRFTISRDNAKNTVYLQMNSLKPEDTAVYYCAARYTYSGDKGYYWGQGTQVTVSS = high polyreactivity

Hi! Can you tell me polyreactivity (PSR sort gate) for each of these sequences?
1. QVQLVESGGGLVQAGGSLRLSCAASGRTFANNAMGWYRQAPGKERELVARISNSGSTNYADSVKGRFTISRDNAKNTVYLQMNSLKPEDTAVYYCAARIVRLYSRYDYWGQGTQVTVSS
2. QVQLVESGGGLFQAGGSLRLSCAASGFTCSGYAMGWYRPAPGKERELVAGISASAGSTYADSVKGRFTISRDNAKNTVYLQMNSLKPEDTAVYYCAADLSFKAAIWFNEYGYWGQGTQVTVSS

["low polyreactivity", "low polyreactivity"]

Which polyreactivity (PSR sort gate) is listed for QVQLVESGGGLVQAGGSLRLSCAASGFIQDLYVMGWYRQAPGKERELVAAISSVGSTYADSVKGRFTISRDNAKNTVYLQMNSLKPEDTAVYYCAKDGTDYDYNYWGQGTQVTVSS ?
low polyreactivity
